Measured Ki (5-hydroxytryptamine receptor 2B (Rattus norvegicus))
MEASURED_PROPERTY: Ki

COc1ccc(CC2NCCc3c2[nH]c2c(C)cc(C)cc32)cc1OC (centres undefined) :: 200 pM
COc1ccc(CC2NCCc3c2[nH]c2ccc(C)cc32)c(Cl)c1OC (centres undefined) :: 200 pM
COc1ccc(CC2NCCc3c2[nH]c2c(F)cc(F)cc32)cc1OC (centres undefined) :: 200 pM
COc1ccc(CC2NCCc3c2[nH]c2cccc(SC)c32)cc1OC (centres undefined) :: 100 pM

====

Overview of reported pIC50 across a group of molecules:
Molecular target: GABA-A receptor; anion channel
Assay: Inhibition of GABAA receptor (unknown origin)
Assay type: protein-complex assay, Homo sapiens
pIC50: −log10 of the molar value.
MEASURED_PROPERTY: pIC50

COCc1c(-c2cc(C)on2)ncc2[nH]c3ccc4oc(C(C)C)nc4c3c12 :: 9.05
Clc1ccc2c(c1)[nH]c1c2ncc2[nH]c3ccccc3c21 :: 8.40
COc1ccc2c(c1)[nH]c1c2ncc2[nH]c3ccccc3c21 :: 8.40
Brc1ccc2[nH]c3cnc4c5ccccc5[nH]c4c3c2c1 :: 8.40
COCc1c(C(=O)OC(C)C)ncc2[nH]c3ccc4nc5c(nc4c3c12)CCCC5 :: 9.10
O=[N+]([O-])c1ccc2[nH]c3cnc4c5ccccc5[nH]c4c3c2c1 :: 8.40
COCc1c(C(=O)OC(C)C)ncc2[nH]c3ccc4nccnc4c3c12 :: 9.10
COCc1c(C(=O)OC(C)C)ncc2[nH]c3ccc4oc(C(C)C)cc4c3c12 :: 9.10
